# reported GI50; entries follow
system: SF-539 CNS; experiment: NCI tumour cell line growth inhibition, 48 h

Compound | GI50
NC1NC=NC2C1N=CN2C1OC(CO)C2[O][Sn][O]C21 (stereo not given) | > 100 µM
COc1cc[c]([Sn]([c]2ccc(OC)cc2)([c]2ccc(OC)cc2)[c]2ccc(OC)cc2)cc1 | 16.8 µM
C[C@@]1([C@H](OC(=O)c2ccccc2)C(N)=O)CO1 | 21.6 µM
COc1ccc(-c2cc(-c3ccc(Nc4nc(Nc5ccccc5)nc(Nc5ccc(Cl)cc5)n4)cc3)nc(N)n2)cc1 | 10.3 µM
CCOC(=O)[C@@H](C)C[C@H](Cc1ccccc1)NC(=O)c1csc([C@@H](C[C@H](C(C)C)N(C)C(=O)[C@@H](NC(=O)[C@H]2CCCCN2C)C(C)(C)CC)OC(C)=O)n1 | 0.00226 µM

----------
# reported TGI; entries follow
tested on: OVCAR-5 ovarian; test: NCI tumour cell line growth inhibition, 48 h

Molecule | Target Under Test | TGI
CCCn1c2c(c3ccccc3c1=O)C(=O)c1ccccc1-2 | OVCAR-5 ovarian | > 100 µM
C=C1C(=O)O[C@H]2[C@H]1CC/C(COC(=O)c1cc(OC)c(OC)c(OC)c1)=C\CC[C@@]1(C)O[C@@H]21 | OVCAR-5 ovarian | 5.08 µM
CCN1CCN(c2nc(C)cc(N(CCCNc3ccnc4cc(Cl)ccc34)Cc3ccc4c(c3)OCO4)n2)CC1 | OVCAR-5 ovarian | 7.77 µM
O=C(CNc1ccccn1)Nn1cnc2ccc(S(=O)(=O)Nc3ccccn3)cc2c1=O | OVCAR-5 ovarian | > 100 µM
CN(C)CCN(C)P12(Oc3ccccc3O1)Oc1c(Cl)c(Cl)c(Cl)c(Cl)c1O2 | OVCAR-5 ovarian | > 100 µM
COC(=O)C(=O)C(C(=O)OC)C(=O)C(=O)Nc1c(C)cccc1C (stereo not given) | OVCAR-5 ovarian | > 100 µM
COC1(CC[C@@H](C)COC2OC(CO)C(O)C(O)C2O)O[C@H]2C[C@H]3[C@@H]4CC=C5C[C@@H](OC6OC(CO)C(OC7OC(C)C(O)C(O)C7O)C(O)C6OC6OC(C)C(O)C(O)C6O)CC[C@]5(C)[C@H]4CC[C@]3(C)[C@H]2[C@@H]1C (stereo not given in full) | OVCAR-5 ovarian | 10.5 µM
CN=c1ss/c(=N\C(=S)N(C)C)n1C | OVCAR-5 ovarian | > 100 µM
COc1ccc2c(c1)OC(N)=C(C#N)C2c1cc(OC)c(OC)c(OC)c1 (stereo not given) | OVCAR-5 ovarian | > 100 µM
CN(C)c1ccc(/C=C/C(=O)c2ccc(O)cc2)cc1 | OVCAR-5 ovarian | > 100 µM

----------
test system: MCF7 breast; experiment: NCI tumour cell line growth inhibition, 48 h
# reported TGI; entries follow
Measured Quantity: TGI

Molecule | Measured Quantity | Reported Value
CN(C)CCN(C)P12(Oc3ccccc3O1)Oc1c(Cl)c(Cl)c(Cl)c(Cl)c1O2 | TGI | > 100 µM
S=c1sc2c(s1)SC(c1ccccc1)CS2 (stereo not given) | TGI | > 100 µM
COc1ccc(C(O)/C(=N/N)c2nc3ccc(Cl)cc3[nH]c2=O)cc1 (stereo not given) | TGI | > 100 µM
CC1(C)CCN2C(=O)C34CCCC3CC21S4 (stereo not given) | TGI | > 100 µM
CC1(C)OP(=O)(c2ccccc2)C=C1Sc1ccc([N+](=O)[O-])cc1[N+](=O)[O-] (stereo not given) | TGI | > 100 µM
Cc1c(C)c2c(c(N)c1C#N)C(=O)N(O)C2=O | TGI | > 100 µM
CCOC(=O)CSc1cc(Cl)c(C)cc1S(=O)(=O)/N=C(/N=C/c1ccc([N+](=O)[O-])s1)NNC | TGI | > 100 µM
COC(=O)C1(NC(=O)C(Cc2ccccc2)N(C(=O)OC(C)(C)C)C(=O)OC(C)(C)C)CCCC1 (stereo not given) | TGI | 64.6 µM
O=C1Nc2ccc(Cl)cc2/C1=C\c1c(-c2ccc(Cl)cc2)nc2sc(C3CC3)nn12 | TGI | 16.6 µM
CC(C)/C=C1\CCC(CN(C)C)C1=O (stereo not given) | TGI | 1.8 µM
